Recorded measurements of screen value, one per entry
B1: ARC CARD domain (amino acids 1-95), wild type [human] / itself (parent)
chain: MGNAQERPSETIDRERKRLVETLQADSGLLLDALLARGVLTGPEYEALDALPDAERRVRRLLLLVQGKGEAACQELLRCAQRTAGAPDPAWDWQH

Variants of: B1
Assay: SEC-MALS
Conditions: with itself
Value Kind: screen value (kDa)

macromolecule_sequence="MGNAQERPSETIDRERKRLVETLQADSGLLLDALLARGVLTGPEYEALRALPDAERRVRRLLLLVQGKGEAACQELLRCAQRTAGAPDPAWDWQH [chain 1 D49R]" value_measured=13
macromolecule_sequence="MGNAQERPSETIDRERKRLVETLQADSGLLLDALLARGVLTGPEYEALDALPDAEERVERLLLLVQGKGEAACQELLRCAQRTAGAPDPAWDWQH [chain 1 R56E R59E]" value_measured=11.8
macromolecule_sequence="MGNAQERPSETIDRERKRLVETLQADSGLLLDALLARGVLTGPEYEALDALPDAERRVERLLLLVQGKGEAACQELLRCAQRTAGAPDPAWDWQH [chain 1 R59E]" value_measured=12
macromolecule_sequence="MGNAQERPSETIDRERKRLVETLQADSGLLLDALLARGVLTGPEYEALRALPDAERRVERLLLLVQGKGEAACQELLRCAQRTAGAPDPAWDWQH [chain 1 D49R R59E]" value_measured=12.8
macromolecule_sequence="MGNAQERPSETIDRERKRLVETLQADSGLLLDALLARGVLTGPEYEALDALPDAEERVRRLLLLVQGKGEAACQELLRCAQRTAGAPDPAWDWQH [chain 1 R56E]" value_measured=13.2
